Values from paper PMC8061081

Target: SARS-CoV-2 3CL^pro (Severe acute respiratory syndrome coronavirus 2)
Assay: biochemical
pIC50: −log10 of the molar value.
experimental-readout: pIC50

INSERT INTO results (structure_smiles_string, tgt, quantitative_result) VALUES
  ('COc1ccc(-c2cc(=O)c3c(O)cc(O)cc3o2)cc1-c1c(O)cc(O)c2c(=O)cc(-c3ccc(O)cc3)oc12', 'SARS-CoV-2 3CL^pro (Severe acute respiratory syndrome coronavirus 2)', 4.95),
  ('COc1cc(O)c2c(=O)cc(-c3ccc(O)cc3)oc2c1', 'SARS-CoV-2 3CL^pro (Severe acute respiratory syndrome coronavirus 2)', 4.97),
  ('O=c1cc(-c2ccc(O)c(-c3c(O)cc(O)c4c(=O)cc(-c5ccc(O)cc5)oc34)c2)oc2cc(O)cc(O)c12', 'SARS-CoV-2 3CL^pro (Severe acute respiratory syndrome coronavirus 2)', 5.06);
